B1: MTMR15 (parent)
chain: YVKAKKSIDKDEEFAGSSPQSSKS

# Variants of: B1
# procedure_details: protein stability index of a GFP-peptide fusion (GPS, HEK-293T) (PSI 1-6); higher = more stable;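 also: lentivirally expressed fusions sorted by FACS into six bins by GFP to DsRed ratio, PSI derived from sequencing read proportions per bin multiplied by bin number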
# measurement_context: c terminus: a fixed tail appended
value_kind: protein stability index

>>> value_measured("E12A")
2.94
>>> value_measured("S17E")
3.59
>>> value_measured("A15L")
3.05
>>> value_measured("S17F")
1.79
>>> value_measured("S17N")
2.9
>>> value_measured("K6A")
2.98
>>> value_measured("F14G")
3.35
>>> value_measured("S24F")
2.79
>>> value_measured("S21M")
3.31
>>> value_measured("F14P")
3.74
>>> value_measured("K5D")
4.22
>>> value_measured("I8M")
3.22
>>> value_measured("G16E")
3.36
>>> value_measured("S22G")
2.97
>>> value_measured("P19I")
2.92
>>> value_measured("K23S")
3.08
>>> value_measured("S22A")
3.1
>>> value_measured("E13N")
2.43
>>> value_measured("D9W")
1.61
>>> value_measured("V2Q")
5.09
>>> value_measured("A15C")
2.64
>>> value_measured("I8P")
3.77
>>> value_measured("A15Q")
3.16
>>> value_measured("A4V")
3.08
>>> value_measured("Q20S")
2.9
>>> value_measured("K3A")
2.87
>>> value_measured("S18G")
3.26
>>> value_measured("S22Y")
2.78
>>> value_measured("S17R")
2.91
>>> value_measured("K3N")
3.52
>>> value_measured("Y1E")
5.82
>>> value_measured("S21A")
3.23
>>> value_measured("S7G")
3.11
>>> value_measured("Q20P")
2.75
>>> value_measured("K6I")
2.67
>>> value_measured("K5F")
2.44
>>> value_measured("A4W")
1.8
>>> value_measured("K10E")
3.26
>>> value_measured("S17Y")
1.92
>>> value_measured("Y1I")
5.52
>>> value_measured("K3E")
3.48
>>> value_measured("K6T")
3.5
>>> value_measured("S24A")
3.29
>>> value_measured("F14W")
2.67
>>> value_measured("E12N")
2.64
>>> value_measured("V2F")
4.74

Where these numbers come from: the supplement of paper PMC10567573
